Reference for the values: PubChem BioAssay (NCI)

test: NCI Yeast Anticancer Drug Screen. Data for the rad50 strain (AID 155);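 note: 0% = growth of vehicle-only cultures of the same strain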
conditionInfo: S. cerevisiae rad50 strain growth inhibition; at 50.0 µM; hits give high values
Compounds without any hit were thinned out: in the full panel of roughly 79,000, 15% have a hit.
Decide using growth inhibition: a value greater than or equal to 20% is True, a smaller one is False.

compound	classAssignment
C1=C\CCC2SC2CC/1 (stereo not drawn)	False
C1OCN2CSCC12 (stereo not drawn)	False
CC(=O)C1C(c2ccccc2)C2(C)OC(=O)C(C#N)C12C (stereo not drawn)	False
O=C1C2CCN(CC2)C1(CO)CO	False
Cc1ccc(S(=O)(=O)/N=[Se](\C)c2ccccc2)cc1 (stereo not drawn)	True
CC(C)(C)C1COP(=S)(C(C)(C)C)OC1 (stereo not drawn)	False
CC[C@@]1(O)C[C@H](OC2CC(N(C)C)C(O)C(C)O2)c2c(cc3c(c2O)C(=O)c2c(O)ccc(O)c2C3=O)[C@H]1C(=O)OC (stereo partly drawn)	True
NC(=S)Nc1ccccc1	False
CC(C)[CH2][Sn]([CH2]C(C)C)([CH2]C(C)C)[C](C)(C)C	True
CC(C)(C)c1ccc(C(C)(C)OO)cc1	True
c1ccc(N=c2snc(-c3ccccc3)s2)cc1	True
O=[As](O)(O)c1ccc(Cc2ccc([As](=O)(O)O)cc2)cc1	True
N#CSCC(=O)O (tested in a mixture with another compound)	False
CC(=O)OC1CCC2(C)C3CCC4(C)C(Oc5ccccc5)CCC4C3CC(Br)C2(O)C1 (stereo not drawn)	False
CC(=O)OC1CC2(C)C3(CO3)C1OC1C=C(C)C(=O)C(O)C12CO (stereo not drawn)	False
Cc1cc(Cl)ccc1[NH-].Cc1cc(Cl)ccc1[NH-].[Cl][Pt+2][Cl]	True
Cc1cc(Cl)ccc1OC(C)C(=O)O (stereo not drawn)	False
CN1C(=O)C23CC4=CC=CC(O)C4N2C(=O)C1(CO)SS3 (stereo not drawn)	True
O=C(Nc1ccc(Cl)cc1C(=O)c1ccccc1)c1ccc(Cl)cc1	False
OCC1N2CCC(CC2)C1(O)O (stereo not drawn)	False
COc1cc2c(c3c[n+](C)c4c5cc6c(cc5ccc4c13)OCO6)OCO2	True
O=P(c1ccccc1)(c1ccccc1)c1ccccc1.O=P(c1ccccc1)(c1ccccc1)c1ccccc1.O=P(c1ccccc1)(c1ccccc1)c1ccccc1.O=P(c1ccccc1)(c1ccccc1)c1ccccc1.[Co+2].[O-][Cl+3]([O-])([O-])O	True
Clc1ccc(Cl)c(Cl)c1	True

----------
test: NCI Yeast Anticancer Drug Screen. Data for the mec2-1 strain (AID 157)
conditionInfo: S. cerevisiae mec2-1 strain, at 50.0 µM, hits give high values
The panel holds about 79,000 compounds, 15% with a hit somewhere; the sample as a whole holds those more often. Active and inactive are the calls of the source. Rule as the data show it: active = growth inhibition above about 70%; inactive = the rest.
measureName: growth inhibition

molecule	measureName	result
NC1=C(N2CC2)C(=O)C(N)=C(N2CC2)C1=O	growth inhibition	-21.4% (inactive)
CCOP(=O)(OCC)/C(C#N)=C/c1cccc(F)c1	growth inhibition	59.3% (inactive)
NC(=S)Nc1ccccc1	growth inhibition	-18% (inactive)
C/C=C1/CN2CCC34c5ccccc5N(C)C23C2CC1C4(C(=O)OC)C(O)O2 (stereo not drawn)	growth inhibition	-31.8% (inactive)
O=C(Nc1ccc(Cl)cc1C(=O)c1ccccc1)c1ccc(Cl)cc1	growth inhibition	10.1% (inactive)
COC1C(O)C(C)OC(O[C@@H]2C[C@H]3CC[C@@H]4[C@H](CC[C@]5(C)[C@@H](C6=CC(=O)OC6)CC[C@]45O)[C@@]3(C)[C@H](O)C2)C1O (stereo partly drawn)	growth inhibition	-12.5% (inactive)
CCC[N+](CCC)(CCC)CCC.[Ni+2].[SH2+]C([SH2+])=Nc1ccccc1.[SH2+]C([SH2+])=Nc1ccccc1	growth inhibition	18.9% (inactive)
Cc1cccc(NC(=O)CCl)c1	growth inhibition	-23.4% (inactive)
C[CH2][Pb]([CH2]C)([CH2]C)[n]1ccnc1	growth inhibition	-6.8% (inactive)
N#CN1CC(C(=O)N2CCCCC2)C=C2c3cccc4[nH]cc(c34)CC21 (stereo not drawn)	growth inhibition	-10.8% (inactive)
CN1CCN(C(=O)Cc2c[nH]c3ccccc23)CC1	growth inhibition	11.8% (inactive)
CC(=O)c1ccc(NC(O)C(Cl)(Cl)Cl)cc1 (stereo not drawn)	growth inhibition	18.9% (inactive)
Cc1ccc2[nH]cc(CCN(C)C)c2c1	growth inhibition	-16.5% (inactive)
CC(C)CC(C)(c1ccc(O)cc1)c1ccc(O)cc1	growth inhibition	93.5% (active)
CC(Cl)CN(CC(C)Cl)c1ccc(-c2ccccc2)cc1 (stereo not drawn)	growth inhibition	-13.8% (inactive)
CC(F)C(N)C(=O)O (stereo not drawn)	growth inhibition	-3.65% (inactive)
O=S1(N2CC2)=NP(N2CC2)(N2CC2)=NP(N2CC2)(N2CC2)=N1 (stereo not drawn)	growth inhibition	-22.5% (inactive)
CCOC(=O)NP(=O)(Nc1ccccc1)Nc1ccccc1	growth inhibition	-8.05% (inactive)
COC1CCCC2OC3(OC)C(OC)CCCC3OC12OC (stereo not drawn)	growth inhibition	14.7% (inactive)
CC(=O)[O-].[Ni].c1ccc(/C(=N\Nc2ccccn2)c2ccccn2)cc1	growth inhibition	3.15% (inactive)
CCC1(O)C(=O)OCc2c1cc1n(c2=O)Cc2cc3ccc(C=O)cc3nc2-1 (stereo not drawn)	growth inhibition	19% (inactive)
COc1cc2c(cc1OC)C(OC)N(C)c1c-2ccc2cc3c(cc12)OCO3 (stereo not drawn)	growth inhibition	-48% (inactive)
CCOP(=O)(CC(=O)c1ccccc1)OCC	growth inhibition	1.25% (inactive)

----------
test: NCI Yeast Anticancer Drug Screen. Data for the cln2 rad14 strain (AID 165);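 note: 0% = growth equal to vehicle treated cultures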
conditionInfo: S. cerevisiae cln2 rad14 strain, at 50.0 µM, hits give high values
The panel holds about 79,000 compounds, 15% with a hit somewhere; the sample as a whole holds those more often.
Decide using growth inhibition: a value greater than or equal to -10% is 1, a smaller one is 0.

compound	classAssignment
O=[N+]([O-])c1cccc2cccc([N+](=O)[O-])c12	0
CC(COC(=O)NCc1ccccc1)OC(N)=O (stereo not given)	0
O=[C-]c1ccccc1[C-]=O.[Pd+2].c1ccc([PH+](c2ccccc2)c2ccccc2)cc1.c1ccc([PH+](c2ccccc2)c2ccccc2)cc1	1
CCC[CH2][Pb]([CH2]CCC)([CH2]CCC)[O]C(C)=O	1
C/C=C1\CN2CC[C@H]1C[C@H]2[C@H](O)c1ccnc2ccc(NCCO)cc12	1

----------
test: NCI Yeast Anticancer Drug Screen. Data for the sgs1 mgt1 strain (AID 161);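 note: 0% = growth of cultures given vehicle only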
conditionInfo: S. cerevisiae sgs1 mgt1 strain, at 50.0 µM
About 79,000 compounds went through this panel and 15% of them were active in at least one assay; those are over-represented in the sample as a whole. Calls of active or inactive are those of the source. Cut-off read from the data, not from the text of the source: active = growth inhibition above about 70%; inactive = the rest.
Possible outcomes: True (active), False (inactive)

compound	classAssignment
O=C1CC2CCCC(C1)N2Cc1ccccc1	False
NC(=O)COc1ccc([As]=O)cc1 (stereo not drawn)	False
O=C(O)CN(CCN(CC(=O)O)CC(=O)O)CC(=O)O.[Ni+2]	False
COC(=O)C1C(c2ccc(-c3ccccc3)cc2)N1C1CCCCC1 (stereo not drawn)	False
COC(=O)C(CC(=O)N[N+](=O)[O-])NC(=O)C(CSC(c1ccccc1)(c1ccccc1)c1ccccc1)NC(=O)OCc1ccccc1 (stereo not drawn)	False
Cc1ccc(C(C)(C)C)c(OP(=S)(S)Oc2cc(C)ccc2C(C)(C)C)c1.[Pb]	False
CC(C)[N+](C)(CCC(C(=O)N(C)C)(c1ccccc1)c1ccccc1)C(C)C	False
O=S(=O)(c1ccccc1)N1CN2CCN(C2)C1	False
O=C(c1ccccc1)C1C(C(=O)c2ccccc2)N1C1CCCCC1 (stereo not drawn)	False
O=C(O)C(F)(F)F.[Ag]	True
C[N+](C)=c1nc(N2CCc3ccccc3C2)ss1	False
COC(=O)C1=NNC2(c3ccccc3Sc3ccccc32)C1C(=O)OC (stereo not drawn)	False
O=P(O)(O)C(O)c1ccncc1 (stereo not drawn)	False
CN1CCc2c([nH]c3ccccc23)C1	False
CCC(CC)CNC(=O)C(C)Br (stereo not drawn)	False
CC(C)(CBr)COP1(=O)NCC(C)(C)CO1 (stereo not drawn)	False
N.N.N.O=N[O-].O=N[O-].O=N[O-].[Co+3]	False
NC(N)=NOCC[C@@H](N)C(=O)O	False
CC(C)CC1N=C(NN=C2CCCCC2)SP1(=O)NNc1ncccn1 (stereo not drawn)	False
O=C(COc1ccc(Cl)cc1C(=O)O)Nc1cccc(NC(=O)Nc2cccc(S(=O)(=O)F)c2)c1	False
C=C1C(=O)OC2CC3(C)OC3CC/C(C)=C/C(OC(C)=O)C12 (stereo not drawn)	False
COc1ccc(C(=O)O)cc1OC	False
O=C1CN2CCCCC2CN1 (stereo not drawn)	False
CCC(c1ccc(OC)cc1)C(N)c1ccc(OC)cc1 (stereo not drawn)	False
CC(=O)[O-].N.N.N.N.[Co+3].[O-][Cl+3]([O-])([O-])[O-].[OH3+]	False
O=C(O)c1ccc([As](=O)(O)O)cc1	False
O=C(O)C1C2Cc3ccccc3C21 (stereo not drawn)	False
CC(=O)OC1(C)CC(C)C(=O)C(C(O)CC2CC(=O)NC(=O)C2)C1 (stereo not drawn)	True
O=C(Nc1ccc(Cl)cc1C(=O)c1ccccc1)c1ccc(Cl)cc1	False
COC1OC(OC)[CH]([Hg][Cl])C1OC (stereo not drawn)	True
CC(=O)[O][Hg][c]1ccc(N)[c]([Hg][O]C(C)=O)c1	True
CCCCP(=O)(CCCC)CCCC.CCCCP(=O)(CCCC)CCCC.CCCCP(=O)(CCCC)CCCC.CCCCP(=O)(CCCC)CCCC.[Ce+3].[O-][Cl+3]([O-])([O-])O	False
O=[N+]([O-])c1ccc(C2C3C(c4ccccc4)=NCCCN32)cc1 (stereo not drawn)	False
CC[C@@]1(O)C(=O)OCc2c1cc1n(c2=O)Cc2cc3c(OC)cccc3nc2-1	True
CC(=O)O.CC(=O)O.CC(=O)O.CC(=O)O.CC(=O)O.CC(=O)O.O.[Ti].[Ti]	False
C1CN(P(N2CCOCC2)N2CCOCC2)CCO1	False
Cc1nccc2c1[nH]c1ccc(Br)cc12	False
Cc1ccc(OP(=O)(Oc2ccc(C)cc2)Oc2ccc(C)cc2)cc1.Cc1ccc(OP(=O)(Oc2ccc(C)cc2)Oc2ccc(C)cc2)cc1.Cc1ccc(OP(=O)(Oc2ccc(C)cc2)Oc2ccc(C)cc2)cc1.Cc1ccc(OP(=O)(Oc2ccc(C)cc2)Oc2cccc(C)c2)cc1.[Cd+2].[O-][Cl+3]([O-])([O-])O	False
[Cl][Pd]([Cl])([Cl])[Cl].[NH-]CC[NH-].[NH-]CC[NH-].[Pd+2]	False
O=C(O)[C@@H](Cl)[C@@H](Cl)C(=O)O	False
CCC(C)C1NC(=O)C2CCCN2C(=O)C(CC2CO2)OC(=O)CCNC(=O)C(C)N(C)C(=O)C(C(C)C)N(C)C1=O (stereo not drawn)	False
CC(C)OC(N)=O	False
CC(=O)OC[C@]12C[C@H](OC(=O)CC(C)C)C(C)=C[C@H]1O[C@@H]1[C@H](O)[C@@H](O)[C@@]2(C)[C@@]12CO2	True
